Target: PKC-alpha (Homo sapiens)
Construct: purchased Calbiochem
Assay: In vitro kinase assay: peptide phosphorylation by PKC-alpha
Assay type: biochemical
Details: peptide concentration 10 uM
Response key: 1 (yes) means phosphorylation by PKC alpha >= 20; 0 (no) means phosphorylation by PKC alpha < 20.

Query: Hello, I need to know if 153 (TYLLPDKSRQGKRKTSIKRD) [compound 153] has measured phosphorylation by PKC alpha not below 20. Thanks!
Response: 1 (yes)

Query: Identify whether the reported phosphorylation by PKC alpha of the following substance is 20 or greater: 143 (VRYTPYTISPYNRKGSFRKQ) [compound 143]
Response: 0 (no)

Query: Has 123 (KKRFSFKKSFKLSGFSFKKN) [compound 123] a recorded phosphorylation by PKC alpha greater than or equal to 20?
Response: 1 (yes)

Query: Check if phosphorylation by PKC alpha >= 20 (inclusive). Item: 156 (SAQITIPKDGQKRKKSLRKK) [compound 156]
Response: 0 (no)

Query: I'd appreciate it if you could say whether 140 (TELEGGFSRQRKRKLSFRRR) [compound 140] has phosphorylation by PKC alpha at least equal to 20.
Response: 0 (no)

Query: Entry 133 (LEKRGMLGKRPRRKSSRRKK) [compound 133] : is its phosphorylation by PKC alpha no less than 20?
Response: 0 (no)

====

Target: PKC-alpha (Homo sapiens, UniProt P17252)
Construct: purchased Calbiochem
Test: In vitro kinase assay: peptide phosphorylation by PKC-alpha
Type: biochemical
Details: normalized to best substrate
I'd be grateful if you could share measured PKC alpha phosphorylation for these entries.
State the value, then name its unit.

Query: Would you kindly share the measured PKC alpha phosphorylation for 99 (AGWRKKTSFRKPKED) [compound 99] ?
Response: 37%

Query: Entry 102 (AGSFKRNSIKKIV) [compound 102] : reported PKC alpha phosphorylation = ?
Response: 35%

Query: Return reported PKC alpha phosphorylation; argument: 104 (EKIKRSSLKKVDSLKK) [compound 104]
Response: 34%

Query: // returns reported PKC alpha phosphorylation for input 107 (QKRHARVTVKYDRRE) [compound 107]
Response: 18%

Query: Which value of PKC alpha phosphorylation has been reported for 111 (KKKRFSFKKSFKLSGFSFKK) [compound 111] in the records?
Response: 11%

Query: Given the substance 103 (LLKKRDSFRTPRDSKLE) [compound 103] , what is its reported PKC alpha phosphorylation?
Response: 32%

Query: Please report the recorded PKC alpha phosphorylation for 88 (KKPFKLSGLSFKRNRKE) [compound 88] .
Response: 48%

Query: Reported PKC alpha phosphorylation, substance 96 (RGFLRSASLGRRASFHLE) [compound 96] : ____
Response: 40%

Query: Look up PKC alpha phosphorylation for this substance: 94 (KLAVGRHSFSRRSGV) [compound 94]
Response: 34%

Query: For 84 (QKKSRLRRRASQLKI) [compound 84] , what is its reported PKC alpha phosphorylation?
Response: 39%

Query: Any idea what PKC alpha phosphorylation was measured for 108 (KATTKKRTLRKNDRK) [compound 108] ?
Response: 19%

Query: Look up PKC alpha phosphorylation: 77 (KKKKRASFKRKSSKKG) [compound 77]
Response: 100%

Query: Endpoint output: PKC alpha phosphorylation of 91 (VHYTSKDTLRKRHYWR) [compound 91] . Value?
Response: 60%

Query: Give its PKC alpha phosphorylation value. Item: 87 (RQGKRKTSIKRDTVNPL) [compound 87]
Response: 46%

Query: Given the substance 109 (KEVVRTDSLKGRRGR) [compound 109] , what is its reported PKC alpha phosphorylation?
Response: 21%

Query: Which PKC alpha phosphorylation value is on record for 106 (EILSRRPSYRKILND) [compound 106] ?
Response: 23%

Query: Can you look up the measured PKC alpha phosphorylation of 93 (AARKKRISVKKKQEQ) [compound 93] for me?
Response: 34%

Query: So what's the measured PKC alpha phosphorylation for this one? 82 (PRLIRRGSKKRPAR) [compound 82]
Response: 61%

Query: PKC alpha phosphorylation; subject: 86 (RQRKRKLSFRRRTDKD) [compound 86]
Response: 47%

Query: Look at this substance and give its reported PKC alpha phosphorylation. 97 (KKRSSKKEASMKKVVRP) [compound 97]
Response: 37%

Query: Recorded PKC alpha phosphorylation of 100 (WKGKRRSKARKKRK) [compound 100] , please.
Response: 14%

Query: What value of measured PKC alpha phosphorylation is listed for 79 (NRKKKRTSFKRKA) [compound 79] ?
Response: 50%

Query: Reported PKC alpha phosphorylation, substance 95 (KKKFRTPSFLKKSKK) [compound 95] : ____
Response: 34%

Query: What value of PKC alpha phosphorylation has been reported for the following substance? 110 (EGGDRRASGRRK) [compound 110]
Response: 30%

Query: What does the data say about its PKC alpha phosphorylation? Entry: 80 (KKKKKRFSFKKSFKL) [compound 80]
Response: 65%

Query: Given 101 (GAPPRRSSIRNAH) [compound 101] , state its recorded PKC alpha phosphorylation.
Response: 32%

====

System: pPKC antibody
Assay: ELISA binding of pPKC antibody to synthesized SHP-1 phosphopeptides
Details: ELISA on phosphopeptide; normalized to the value for the Ser-591 peptide
Square brackets hold non-standard residues; d marks the D form. Ends that are not written are not given here. pS = N[C@@H](COP(=O)(O)O)C(=O)O
Label key: y means Binding of pPKC antibody under 9; n means Binding of pPKC antibody of 9 or more.

Query: Determine whether this substance shows Binding of pPKC antibody lower than 9 (ties excluded): 298 (ADKEKSKG[pS]LKRK) [compound 298]
Response: n

Query: I'd appreciate it if you could check whether 300 (HGSFLARP[pS]RKNQGDFS) [compound 300] has Binding of pPKC antibody smaller than 9.
Response: n

Query: Find out if reported Binding of pPKC antibody for 297 (PLNCSDPT[pS]ERWYHGHM) [compound 297] is less than 9
Response: y

Query: Strictly below 9 in Binding of pPKC antibody? 292 (KKKLEVLQ[pS]QKGQESEY) [compound 292]
Response: n

Query: Here's an entry: 291 (AHAKASRT[pS]SKHKEDVY) [compound 291] . Is its Binding of pPKC antibody below 9?
Response: n

Query: Hello, I'm reviewing records and need to know if Binding of pPKC antibody of 296 (KNQGDFSL[pS]VRVGDQVT) [compound 296] is below 9. Could you check?
Response: y

Query: Take the substance 294 (HAKASRTS[pS]KHKEDVYE) [compound 294] and say whether its Binding of pPKC antibody is less than 9.
Response: y

Query: Lab note: Binding of pPKC antibody threshold 9. Does this substance come in strictly under it? 290 (RVILQGRD[pS]NIPGSDYI) [compound 290]
Response: n

Query: Could you please tell me whether Binding of pPKC antibody recorded for 295 (PWTFLVRE[pS]LSQPGDFV) [compound 295] is less than 9?
Response: y

Query: Strictly below 9: is that where Binding of pPKC antibody of 289 (MKNAHAKA[pS]RTSSKHKE) [compound 289] sits?
Response: n

Query: Does 299 (LKGRGVHG[pS]FLARPSRK) [compound 299] have Binding of pPKC antibody strictly under 9?
Response: n

====

I'd appreciate it if you could supply PKC average values for the items below.
Test system: PKC
Test: In vitro phosphorylation by PKC (average of isoforms alpha, epsilon, delta, theta)
Type: biochemical
Settings: average of PKC-alpha, -epsilon, -theta, normalized to best substrate
Quick note: give the figure in %, leave out the unit.

Query: Which PKC average reading was recorded for the substance 93 (AARKKRISVKKKQEQ) [compound 93] ?
Response: 37

Query: What measured PKC average goes with 105 (ALRRPSLRREADD) [compound 105] ?
Response: 21

Query: PKC average for 87 (RQGKRKTSIKRDTVNPL) [compound 87] ?
Response: 47

Query: Quick check: PKC average of 90 (AQIVKRASLKRGKQ) [compound 90] ?
Response: 40

Query: State the recorded PKC average for this entry: 89 (EYLERRASRRRAV) [compound 89]
Response: 41

Query: Fill in the blank: the reported PKC average of 88 (KKPFKLSGLSFKRNRKE) [compound 88] is ____.
Response: 43

====

Assignment: determine reported phosphorylation by PKC-delta for the given substances.
Target: PKC-delta (Homo sapiens)
Construct: purchased Calbiochem
Sequence (Q05655 whole entry): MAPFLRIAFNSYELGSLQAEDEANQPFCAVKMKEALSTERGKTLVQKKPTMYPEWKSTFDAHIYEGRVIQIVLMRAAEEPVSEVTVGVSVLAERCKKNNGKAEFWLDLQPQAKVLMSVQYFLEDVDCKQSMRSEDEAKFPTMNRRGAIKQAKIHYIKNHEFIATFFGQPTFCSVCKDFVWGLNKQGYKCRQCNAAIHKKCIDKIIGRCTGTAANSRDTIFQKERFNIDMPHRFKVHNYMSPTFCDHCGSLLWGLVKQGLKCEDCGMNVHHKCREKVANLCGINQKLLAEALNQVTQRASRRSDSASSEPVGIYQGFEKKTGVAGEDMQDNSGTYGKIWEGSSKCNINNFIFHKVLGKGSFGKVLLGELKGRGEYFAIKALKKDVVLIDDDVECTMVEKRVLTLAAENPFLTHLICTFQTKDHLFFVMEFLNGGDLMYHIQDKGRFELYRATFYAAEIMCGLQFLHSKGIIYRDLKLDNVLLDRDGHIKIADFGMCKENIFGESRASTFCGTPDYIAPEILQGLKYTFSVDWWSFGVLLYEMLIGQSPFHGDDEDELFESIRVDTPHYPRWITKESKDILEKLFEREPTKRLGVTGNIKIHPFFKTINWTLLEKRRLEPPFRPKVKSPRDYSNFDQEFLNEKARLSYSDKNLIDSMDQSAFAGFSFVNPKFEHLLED
Assay: In vitro kinase assay: peptide phosphorylation by PKC-delta
Assay type: biochemical
Details: peptide concentration 10 uM

Query: Dear colleague, I am looking for the recorded phosphorylation by PKC-delta of the following substance: 160 (PFEVVWYKDKRQLRSSKKYK) [compound 160]
Response: 31

Query: Name the recorded phosphorylation by PKC-delta for 154 (KKFFTQGWAGWRKKTSFRKP) [compound 154] .
Response: 14

Query: I am curious: what phosphorylation by PKC-delta value has been reported for 137 (PSKSPSKKKKKFRTPSFLKK) [compound 137] ?
Response: 16

Query: Please give the measured phosphorylation by PKC-delta for this substance: 139 (RPTPGDGEKRSRIKKSKKRK) [compound 139]
Response: 24

Query: # phosphorylation by PKC-delta lookup, item 147 (RDIRQSPKRGFLRSASLGRR) [compound 147]
Response: 13

Query: Fill in: phosphorylation by PKC-delta of 135 (KKKFRTPSFLKKSKK) [compound 135] is ___
Response: 25

Query: Any idea what phosphorylation by PKC-delta was measured for 133 (LEKRGMLGKRPRRKSSRRKK) [compound 133] ?
Response: 52

Query: Requested field: phosphorylation by PKC-delta. Item: 136 (RARRDSLKKIEIW) [compound 136]
Response: 23

Query: For the substance 153 (TYLLPDKSRQGKRKTSIKRD) [compound 153] , what phosphorylation by PKC-delta is on record?
Response: 26

Query: // lookup phosphorylation by PKC-delta for 128 (QQVDRERPHVRRRRGTFKRS) [compound 128]
Response: 57

Query: Give its phosphorylation by PKC-delta value. Item: 146 (QAQRQIKRGAPPRRSSIRNA) [compound 146]
Response: 14
